system: HepG2; test: Cytotoxicity against human HepG2 cells assessed as cell growth inhibition measured after 24 hrs by MTT assay; format: functional, cell-based; settings: HepG2, 24 h
METRIC_NAME: pIC50
pIC50 here: minus log base 10 of the concentration, concentration in moles per litre.

// recorded pIC50 for "C[C@@H]1CC[C@@]2(OC1)O[C@H]1C[C@H]3[C@@H]4CC=C5C[C@@H](OC(=O)CCC(=O)N6CCOCC6)CC[C@]5(C)[C@H]4CC[C@]3(C)[C@H]1[C@@H]2C" : 4.98

Switching to the query record.
// recorded pIC50 for "C[C@@H]1CC[C@@]2(OC1)O[C@H]1C[C@H]3[C@@H]4CC=C5C[C@@H](OC(=O)CCC(=O)N6CC[N+](Cc7ccc(C(C)(C)C)cc7)(Cc7ccc(C(C)(C)C)cc7)CC6)CC[C@]5(C)[C@H]4CC[C@]3(C)[C@H]1[C@@H]2C" : 5.17

---

test system: HepG2; assay: Cytotoxicity against human HepG2 cells assessed as cell growth inhibition measured after 24 hrs by MTT assay; format: functional, cell-based; details: HepG2, 24 h
METRIC_NAME: IC50

Some molecules with recorded IC50:
// recorded IC50 for "C[C@@H]1CC[C@@]2(OC1)O[C@H]1C[C@H]3[C@@H]4CC=C5C[C@@H](O)CC[C@]5(C)[C@H]4CC[C@]3(C)[C@H]1[C@@H]2C" : > 10 µM

// recorded IC50 for "C[C@@H]1CC[C@@]2(OC1)O[C@H]1C[C@H]3[C@@H]4CC=C5C[C@@H](OC(=O)CCC(=O)N6CCN(S(=O)(=O)O)CC6)CC[C@]5(C)[C@H]4CC[C@]3(C)[C@H]1[C@@H]2C" : > 10 µM

// recorded IC50 for "COc1ccc(C[N+]2(Cc3ccc(OC)cc3)CCN(C(=O)CCC(=O)O[C@H]3CC[C@@]4(C)C(=CC[C@H]5[C@@H]6C[C@@H]7O[C@]8(CC[C@@H](C)CO8)[C@@H](C)[C@@H]7[C@@]6(C)CC[C@@H]54)C3)CC2)cc1" : 9.9 µM

// recorded IC50 for "C[C@@H]1CC[C@@]2(OC1)O[C@H]1C[C@H]3[C@@H]4CC=C5C[C@@H](OC(=O)CCCC(=O)N6CCOCC6)CC[C@]5(C)[C@H]4CC[C@]3(C)[C@H]1[C@@H]2C" : > 10 µM

// recorded IC50 for "C[C@@H]1CC[C@@]2(OC1)O[C@H]1C[C@H]3[C@@H]4CC=C5C[C@@H](OC(=O)CCC(=O)N6CC[N+](Cc7ccccc7)(Cc7ccccc7)CC6)CC[C@]5(C)[C@H]4CC[C@]3(C)[C@H]1[C@@H]2C" : 6.4 µM

More entries:
// recorded IC50 for "C[C@@H]1CC[C@@]2(OC1)O[C@H]1C[C@H]3[C@@H]4CC=C5C[C@@H](OC(=O)c6ccccc6C(=O)N6CCCC6)CC[C@]5(C)[C@H]4CC[C@]3(C)[C@H]1[C@@H]2C" : > 10 µM

// recorded IC50 for "C[C@@H]1CC[C@@]2(OC1)O[C@H]1C[C@H]3[C@@H]4CC=C5C[C@@H](OC(=O)CCC(=O)N6CCNCC6)CC[C@]5(C)[C@H]4CC[C@]3(C)[C@H]1[C@@H]2C" : 1.9 µM

// recorded IC50 for "C[C@@H]1CC[C@@]2(OC1)O[C@H]1C[C@H]3[C@@H]4CC=C5C[C@@H](OC(=O)c6ccccc6C(=O)N6CCc7ccccc7C6)CC[C@]5(C)[C@H]4CC[C@]3(C)[C@H]1[C@@H]2C" : > 10 µM

// recorded IC50 for "C[C@@H]1CC[C@@]2(OC1)O[C@H]1C[C@H]3[C@@H]4CC=C5C[C@@H](OC(=O)CCC(=O)N6CCN(S(=O)(=O)c7ccc(F)cc7)CC6)CC[C@]5(C)[C@H]4CC[C@]3(C)[C@H]1[C@@H]2C" : > 10 µM

// recorded IC50 for "C[C@@H]1CC[C@@]2(OC1)O[C@H]1C[C@H]3[C@@H]4CC=C5C[C@@H](OC(=O)CCC(=O)N6CC[N+](Cc7ccc(Cl)cc7)(Cc7ccc(Cl)cc7)CC6)CC[C@]5(C)[C@H]4CC[C@]3(C)[C@H]1[C@@H]2C" : > 10 µM

// recorded IC50 for "C[C@@H]1CC[C@@]2(OC1)O[C@H]1C[C@H]3[C@@H]4CC=C5C[C@@H](OC(=O)CCCC(=O)N6CCNCC6)CC[C@]5(C)[C@H]4CC[C@]3(C)[C@H]1[C@@H]2C" : 2 µM
